TARGET: RRM tandem WT (Table 3) (human, UniProt Q07955 1-196)
Sequence (Q07955 1-196): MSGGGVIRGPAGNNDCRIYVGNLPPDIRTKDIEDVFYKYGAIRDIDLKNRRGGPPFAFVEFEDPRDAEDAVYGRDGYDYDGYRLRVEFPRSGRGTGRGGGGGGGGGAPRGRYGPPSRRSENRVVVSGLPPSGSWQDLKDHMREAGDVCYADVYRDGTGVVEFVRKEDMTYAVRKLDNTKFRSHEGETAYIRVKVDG
METHOD_NOTES: FP; FP, 10 nM RNA, 37 C 30 min then 25 C 10 min; 21-mers: 25 mM KCl, 0.25 M Arg/Glu, 20 mM Tris-HCl pH 7.5, 0.1 mM EDTA, 0.1 mM TCEP, 0.02% Tween 20; 8-mers: 35 mM
MEASUREMENT_PARAMETERS: protein: recombinant; tags: SUMO; label: 5' fluorescein; G-quadruplex (parallel)
MEASURED_METRIC: pKd
Give only the number. pKd is defined as minus log10 of concentration in molar units.

Determine its reported pKd: GGGGGCUGGGCGGGGACCGGG (structured_RNA) [ARPC2 GQ] 6.89
